Values from the RNAGym collection of RNA variant scans (doi:10.7554/elife.80360)

B1: Twister Ribozyme (parent)
chain: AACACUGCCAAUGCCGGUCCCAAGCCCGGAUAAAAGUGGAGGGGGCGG

Variants of: B1
MEASUREMENT_PROTOCOL: self-cleavage, relative activity (ratio to wild type); higher = more cleavage; co-transcriptional
RESULT_TYPE: self-cleavage
Would you mind answering with just the numeric figure?

Reported self-cleavage, variant G7C C8A : ____
0.0479

self-cleavage for A40C G47C ?
0.193

Request the reported self-cleavage associated with A4U A32C
0.1

What measured self-cleavage goes with A30U C46G ?
0.931

Entry under review: C14G G29A . Reported self-cleavage?
0.182

Request the reported self-cleavage associated with A40G G41C
0.133

Value lookup for self-cleavage; key = A22U G43A
0.136

What measured self-cleavage goes with A4C G39A ?
0.101

// lookup self-cleavage for U18C G41A
0.137

Which self-cleavage reading was recorded for the variant C3A C5A ?
0.0993

For G29U A34U , what is its reported self-cleavage?
0.666

Suppose we examine the variant C3U G13U ; what self-cleavage value has been reported?
0.113

Reported self-cleavage for C8G C9A : what is it?
0.0971

Entry C15A A30C : reported self-cleavage = ?
0.648

Given the variant G13A A32C , what is its reported self-cleavage?
0.689

For the variant A10C A40C , what self-cleavage is on record?
0.253

Please give the measured self-cleavage for this variant: C9U C46U
0.729

Recorded self-cleavage of A1G G17A , please.
0.367

# self-cleavage lookup, item G7U G36U
0.0615

GET /values?readout=self-cleavage&item= A1C U6C
0.147

May I ask what self-cleavage has been recorded for A4C G43U ?
0.103

Item C8U C25A has what recorded self-cleavage?
0.0853

Item G13U G44A has what recorded self-cleavage?
0.821

Requested field: self-cleavage. Item: C25A G43C
0.0876

Look up self-cleavage for this variant: C8U G38C
0.644

Consider the variant shown here: A34C G44C What is its recorded self-cleavage?
0.156

Return reported self-cleavage; argument: G7U A11G
0.131

Find the recorded self-cleavage belonging to A10U A22U and report it.
0.829

Quick one: self-cleavage of A10U A33G ?
0.825

What does the record list as self-cleavage for G7U U18A ?
0.0251

What value of self-cleavage has been reported for the following variant? A2G G38A
0.448

Name the recorded self-cleavage for U18C G24U .
0.079

Would you mind telling me what self-cleavage value was observed for G28A G47A ?
0.545

What value of measured self-cleavage is listed for A30G U31G ?
1.02

Param item = C25A G48A ; retrieve measured self-cleavage.
0.106

Bench note: what self-cleavage did C15A C26U show?
0.0725

What value of self-cleavage has been reported for the following variant? A23G G41A
0.15

Entry G36U U37G has what self-cleavage?
0.37

Requested read-out: self-cleavage. Entry: A32C G43C
0.153

Recorded self-cleavage for A34U G44U , please?
0.771

Give its self-cleavage value. Item: C20U G47C
0.165

Entry under review: G28C G43U . Reported self-cleavage?
0.17

Any idea what self-cleavage was measured for C5A A33U ?
0.492

Please give the measured self-cleavage for this variant: A4U C20A
0.0537

What measured self-cleavage goes with C14G C27G ?
0.0942

What does the record list as self-cleavage for A35C A40G ?
0.18
